Molecular target: hCA XII (Homo sapiens)
Construct: made in house
Test: stopped-flow CO2 hydrase assay, hCA XII
Assay type: biochemical
Settings: ratio Ki hCA II / Ki hCA XII
Yes means recorded Selectivity II/XII is 6 or above; No means it is below 6.

# Molecule, Class label
data = [
    ("NC(=O)CC(Nc1nc(NCc2ccc(S(N)(=O)=O)cc2)nc(NC(CC(N)=O)C(=O)O)n1)C(=O)O (stereo not shown) [compound 16]", "No"),
    ("NS(=O)(=O)c1ccc(CCNc2nc(NC(CO)C(=O)O)nc(NC(CO)C(=O)O)n2)cc1 (stereo not shown) [compound 21]", "Yes"),
    ("NS(=O)(=O)c1ccc(Nc2nc(NC(Cc3ccc(O)cc3)C(=O)O)nc(NC(Cc3ccc(O)cc3)C(=O)O)n2)cc1 (stereo not shown) [compound 5]", "No"),
    ("CC(O)C(Nc1nc(NCc2ccc(S(N)(=O)=O)cc2)nc(NC(C(=O)O)C(C)O)n1)C(=O)O (stereo not shown) [compound 15]", "No"),
    ("NC(=O)CCC(Nc1nc(Nc2ccc(S(N)(=O)=O)cc2)nc(NC(CCC(N)=O)C(=O)O)n1)C(=O)O (stereo not shown) [compound 10]", "Yes"),
    ("NS(=O)(=O)c1ccc(CCNc2nc(NC(Cc3c[nH]c4ccccc34)C(=O)O)nc(NC(Cc3c[nH]c4ccccc34)C(=O)O)n2)cc1 (stereo not shown) [compound 20]", "No"),
    ("CC(O)C(Nc1nc(Nc2ccc(S(N)(=O)=O)cc2)nc(NC(C(=O)O)C(C)O)n1)C(=O)O (stereo not shown) [compound 8]", "Yes"),
]

###

Biological target: hCA XII (Homo sapiens, UniProt O43570)
Sequence (O43570 25-354): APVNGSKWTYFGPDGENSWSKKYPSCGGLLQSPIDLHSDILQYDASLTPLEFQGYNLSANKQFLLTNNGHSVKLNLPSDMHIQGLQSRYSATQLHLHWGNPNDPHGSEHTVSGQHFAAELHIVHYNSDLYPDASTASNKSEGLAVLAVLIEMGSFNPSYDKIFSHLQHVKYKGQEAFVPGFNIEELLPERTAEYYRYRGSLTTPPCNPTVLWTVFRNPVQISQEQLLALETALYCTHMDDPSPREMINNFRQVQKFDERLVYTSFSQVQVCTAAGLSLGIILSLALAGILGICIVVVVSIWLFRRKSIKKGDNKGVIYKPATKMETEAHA
Assay: stopped-flow CO2 hydrase assay, hCA XII
Details: recombinant enzyme, 15 min preincubation, pH 8.3, mean from 3 assays
pKi: −log10 of the molar value.

# Compound, pKi
measured = [
    ("NS(=O)(=O)c1ccc(CNc2nc(NC(Cc3ccc(O)cc3)C(=O)O)nc(NC(Cc3ccc(O)cc3)C(=O)O)n2)cc1 (centres unmarked)", 8.06),
    ("NC(=O)CC(Nc1nc(Nc2ccc(S(N)(=O)=O)cc2)nc(NC(CC(N)=O)C(=O)O)n1)C(=O)O (centres unmarked)", 7.42),
    ("NS(=O)(=O)c1ccc(Nc2nc(NC(CO)C(=O)O)nc(NC(CO)C(=O)O)n2)cc1 (centres unmarked)", 7.14),
    ("NS(=O)(=O)c1ccc(CNc2nc(NC(Cc3c[nH]c4ccccc34)C(=O)O)nc(NC(Cc3c[nH]c4ccccc34)C(=O)O)n2)cc1 (centres unmarked)", 8.07),
    ("NC(=O)CCC(Nc1nc(Nc2ccc(S(N)(=O)=O)cc2)nc(NC(CCC(N)=O)C(=O)O)n1)C(=O)O (centres unmarked)", 7.17),
    ("NC(=O)CC(Nc1nc(NCCc2ccc(S(N)(=O)=O)cc2)nc(NC(CC(N)=O)C(=O)O)n1)C(=O)O (centres unmarked)", 7.27),
    ("NC(=O)CCC(Nc1nc(NCc2ccc(S(N)(=O)=O)cc2)nc(NC(CCC(N)=O)C(=O)O)n1)C(=O)O (centres unmarked)", 7.46),
    ("NS(=O)(=O)c1ccc(CCNc2nc(NC(Cc3c[nH]c4ccccc34)C(=O)O)nc(NC(Cc3c[nH]c4ccccc34)C(=O)O)n2)cc1 (centres unmarked)", 8.08),
    ("NS(=O)(=O)c1ccc(Nc2nc(N[C@@H](Cc3c[nH]c4ccccc34)C(=O)O)nc(N[C@@H](Cc3c[nH]c4ccccc34)C(=O)O)n2)cc1", 8.09),
    ("CC(Nc1nc(Nc2ccc(S(N)(=O)=O)cc2)nc(NC(C)C(=O)O)n1)C(=O)O (centres unmarked)", 8.05),
    ("NC(=O)CCC(Nc1nc(NCCc2ccc(S(N)(=O)=O)cc2)nc(NC(CCC(N)=O)C(=O)O)n1)C(=O)O (centres unmarked)", 7.24),
    ("CC(O)C(Nc1nc(NCc2ccc(S(N)(=O)=O)cc2)nc(NC(C(=O)O)C(C)O)n1)C(=O)O (centres unmarked)", 7.35),
    ("NS(=O)(=O)c1ccc(Nc2nc(NC(Cc3ccc(O)cc3)C(=O)O)nc(NC(Cc3ccc(O)cc3)C(=O)O)n2)cc1 (centres unmarked)", 8.03),
    ("NS(=O)(=O)c1ccc(CCNc2nc(NC(Cc3ccc(O)cc3)C(=O)O)nc(NC(Cc3ccc(O)cc3)C(=O)O)n2)cc1 (centres unmarked)", 8.12),
]

###

# Ki listing for each entry below
Molecular target: hCA I (Homo sapiens, UniProt P00915)
Sequence (P00915 whole entry): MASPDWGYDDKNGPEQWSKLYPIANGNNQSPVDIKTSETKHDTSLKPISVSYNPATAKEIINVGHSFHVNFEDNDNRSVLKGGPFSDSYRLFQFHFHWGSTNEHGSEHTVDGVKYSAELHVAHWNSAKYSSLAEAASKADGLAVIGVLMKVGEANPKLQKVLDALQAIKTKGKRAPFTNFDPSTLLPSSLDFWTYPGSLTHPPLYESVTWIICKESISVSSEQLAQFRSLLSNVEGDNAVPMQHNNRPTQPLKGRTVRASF
Experiment: stopped-flow CO2 hydrase assay, hCA I
Details: recombinant enzyme, 15 min preincubation, pH 8.3, mean from 3 assays

# Molecule, Ki
data = [
    ("NC(=O)CC(Nc1nc(Nc2ccc(S(N)(=O)=O)cc2)nc(NC(CC(N)=O)C(=O)O)n1)C(=O)O (centres unmarked)", "> 10 µM"),
    ("NC(=O)CC(Nc1nc(NCCc2ccc(S(N)(=O)=O)cc2)nc(NC(CC(N)=O)C(=O)O)n1)C(=O)O (centres unmarked)", "0.886 µM"),
    ("CC(O)C(Nc1nc(Nc2ccc(S(N)(=O)=O)cc2)nc(NC(C(=O)O)C(C)O)n1)C(=O)O (centres unmarked)", "7.27 µM"),
    ("CC(O)C(Nc1nc(NCc2ccc(S(N)(=O)=O)cc2)nc(NC(C(=O)O)C(C)O)n1)C(=O)O (centres unmarked)", "0.684 µM"),
    ("NS(=O)(=O)c1ccc(CCNc2nc(NC(Cc3c[nH]c4ccccc34)C(=O)O)nc(NC(Cc3c[nH]c4ccccc34)C(=O)O)n2)cc1 (centres unmarked)", "0.0414 µM"),
    ("NS(=O)(=O)c1ccc(Nc2nc(NC(Cc3ccc(O)cc3)C(=O)O)nc(NC(Cc3ccc(O)cc3)C(=O)O)n2)cc1 (centres unmarked)", "0.0983 µM"),
    ("NC(=O)CC(Nc1nc(NCc2ccc(S(N)(=O)=O)cc2)nc(NC(CC(N)=O)C(=O)O)n1)C(=O)O (centres unmarked)", "0.834 µM"),
    ("NS(=O)(=O)c1ccc(CNc2nc(NC(Cc3ccc(O)cc3)C(=O)O)nc(NC(Cc3ccc(O)cc3)C(=O)O)n2)cc1 (centres unmarked)", "0.0757 µM"),
    ("NS(=O)(=O)c1ccc(CCNc2nc(NC(CO)C(=O)O)nc(NC(CO)C(=O)O)n2)cc1 (centres unmarked)", "0.819 µM"),
    ("NC(=O)CCC(Nc1nc(NCCc2ccc(S(N)(=O)=O)cc2)nc(NC(CCC(N)=O)C(=O)O)n1)C(=O)O (centres unmarked)", "0.684 µM"),
    ("CC(Nc1nc(Nc2ccc(S(N)(=O)=O)cc2)nc(NC(C)C(=O)O)n1)C(=O)O (centres unmarked)", "5.54 µM"),
    ("NS(=O)(=O)c1ccc(Nc2nc(NC(CO)C(=O)O)nc(NC(CO)C(=O)O)n2)cc1 (centres unmarked)", "6.56 µM"),
    ("NS(=O)(=O)c1ccc(Nc2nc(N[C@@H](Cc3c[nH]c4ccccc34)C(=O)O)nc(N[C@@H](Cc3c[nH]c4ccccc34)C(=O)O)n2)cc1", "0.0483 µM"),
    ("NC(=O)CCC(Nc1nc(Nc2ccc(S(N)(=O)=O)cc2)nc(NC(CCC(N)=O)C(=O)O)n1)C(=O)O (centres unmarked)", "9.2 µM"),
]

###

Molecular target: UniProt P22748
Sequence (P22748 19-312): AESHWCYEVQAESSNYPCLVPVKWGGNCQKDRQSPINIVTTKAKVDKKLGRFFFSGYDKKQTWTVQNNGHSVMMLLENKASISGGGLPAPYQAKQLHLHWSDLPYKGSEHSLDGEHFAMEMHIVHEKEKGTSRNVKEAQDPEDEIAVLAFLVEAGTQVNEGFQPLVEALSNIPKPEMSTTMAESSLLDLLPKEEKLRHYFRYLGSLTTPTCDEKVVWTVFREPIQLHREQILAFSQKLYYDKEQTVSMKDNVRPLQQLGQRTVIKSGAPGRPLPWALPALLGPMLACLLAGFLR
Test: stopped-flow CO2 hydrase assay, hCA IV
Settings: recombinant enzyme, 15 min preincubation, pH 8.3, mean from 3 assays
Decide using Ki alone. Strictly below 0.5 µM: rule met. Equal to or above 0.5 µM: rule not met.

# Compound, Class label
measured = [
    ("NS(=O)(=O)c1ccc(CCNc2nc(NC(CO)C(=O)O)nc(NC(CO)C(=O)O)n2)cc1 (stereo not drawn) [compound 21]", "rule not met"),
    ("NS(=O)(=O)c1ccc(CCNc2nc(NC(Cc3c[nH]c4ccccc34)C(=O)O)nc(NC(Cc3c[nH]c4ccccc34)C(=O)O)n2)cc1 (stereo not drawn) [compound 20]", "rule not met"),
    ("NS(=O)(=O)c1ccc(Nc2nc(NC(Cc3ccc(O)cc3)C(=O)O)nc(NC(Cc3ccc(O)cc3)C(=O)O)n2)cc1 (stereo not drawn) [compound 5]", "rule met"),
    ("CC(O)C(Nc1nc(Nc2ccc(S(N)(=O)=O)cc2)nc(NC(C(=O)O)C(C)O)n1)C(=O)O (stereo not drawn) [compound 8]", "rule not met"),
    ("NS(=O)(=O)c1ccc(CNc2nc(NC(Cc3ccc(O)cc3)C(=O)O)nc(NC(Cc3ccc(O)cc3)C(=O)O)n2)cc1 (stereo not drawn) [compound 12]", "rule met"),
    ("NS(=O)(=O)c1ccc(CNc2nc(NC(Cc3c[nH]c4ccccc34)C(=O)O)nc(NC(Cc3c[nH]c4ccccc34)C(=O)O)n2)cc1 (stereo not drawn) [compound 13]", "rule met"),
]
